From: patent US20240208961A1

assay: Pharmacokinetic studies of certain compounds in female Balb/c mice (Example 5); type: in vivo; details: female, Balb/c, mouse, plasma, po, 100 mg/kg, I-2 PO 100 mg/kg, 8 hr, read-out: Plasma concentration Individual
reported metric: concentration at 8 h (ng/mL)

molecule="CC(C)Cc1sc(Nc2ncc(-c3cccs3)cc2C(=O)O)nc1C1=CCCCC1 [Compound I-2]" result_number=1080

###

assay: Pharmacokinetic studies of certain compounds in female Balb/c mice (Example 5); type: in vivo; conditions: mouse, plasma, I-2 PO 100 mg/kg
reported metric: MRT last (h)

compound="CC(C)Cc1sc(Nc2ncc(-c3cccs3)cc2C(=O)O)nc1C1=CCCCC1 [Compound I-2]" result_number=4.63

###

assay: Pharmacokinetic studies of certain compounds in female Balb/c mice (Example 5); assay type: in vivo; conditions: female, Balb/c, mouse, plasma, iv, 1 mg/kg, I-27 IV 1 mg/kg, 8 hr, read-out: Plasma concentration Individual
reported metric: concentration at 8 hr (ng/mL)

compound_string=CC(C)Cc1sc(Nc2ncc(-c3cccs3)cc2C(=O)O)nc1C1(C)CCCCC1 result_number=7.46

###

experiment: Pharmacokinetic studies of certain compounds in female Balb/c mice (Example 5); format: in vivo; conditions: mouse, plasma, I-27 IV 1 mg/kg
reported metric: half-life (min)

compound="CC(C)Cc1sc(Nc2ncc(-c3cccs3)cc2C(=O)O)nc1C1(C)CCCCC1 [Compound I-27]" result_number=257

###

test: Pharmacokinetic study of I-11 in female BALB/c mice (Example 4); type: in vivo, Balb/c mouse; conditions: mouse, plasma, PO 50 mg/kg
reported metric: Cmax

compound="CC(C)Cc1sc(Nc2ncc(-c3cccs3)cc2C(=O)O)nc1C(C)(C)C [Compound I-11]" reported_metric=Cmax result="7120 ng/mL"

###

experiment: Pharmacokinetic study of I-11 in female BALB/c mice (Example 4); format: in vivo, Balb/c mouse; conditions: female, BALB/c, mouse, plasma, iv, 5 mg/kg, IV 5 mg/kg, 0.25 hr, read-out: Plasma concentration Individual
reported metric: concentration at 0.25 hr (µg/mL)

compound_string=CC(C)Cc1sc(Nc2ncc(-c3cccs3)cc2C(=O)O)nc1C(C)(C)C result_number=5.6

###

assay: Pharmacokinetic studies of certain compounds in female Balb/c mice (Example 5); format: in vivo; settings: female, Balb/c, mouse, plasma, po, 23.8 mg/kg, I-29 PO 23.8 mg/kg, 8 hr, read-out: Plasma concentration Mean
reported metric: concentration at 8 hr

molecule="CC(C)Cc1sc(Nc2ncc(-c3cccs3)cc2C(=O)O)nc1C1CCC(F)(F)CC1 [Compound I-29]" reported_metric="concentration at 8 hr" result="79.7 ng/mL"

###

experiment: Pharmacokinetic studies of certain compounds in female Balb/c mice (Example 5); assay type: in vivo; settings: female, Balb/c, mouse, plasma, po, 30 mg/kg, I-27 PO 30 mg/kg, 0.25 hr, read-out: Plasma concentration Individual
reported metric: concentration at 0.25 h

compound="CC(C)Cc1sc(Nc2ncc(-c3cccs3)cc2C(=O)O)nc1C1(C)CCCCC1 [Compound I-27]" reported_metric="concentration at 0.25 h" result="448 ng/mL"

###

Test: Pharmacokinetic studies of certain compounds in female Balb/c mice (Example 5)
Format: in vivo
Conditions: mouse, plasma, I-2 PO 100 mg/kg
Experimental: Pharmacokinetic studies were performed using Balb/c mice, 15-20 g, 6-9 weeks, female, N=9, purchased from Jihui Laboratory Animal Co. LTD. For compound I-29, Balb/c mice, 19-21 g, 9-11 weeks, female, N=9, were used. […] Plasma samples were analyzed using LC-MS using a calibration curve of known concentrations. The results of these studies are summarized in Tables 11-21 below and in FIGS. 2-8. […] BQL=below quantifiable limit for compound in female Balb/c mouse plasma samples. […]
reported metric: half-life (h)

compound="CC(C)Cc1sc(Nc2ncc(-c3cccs3)cc2C(=O)O)nc1C1=CCCCC1 [Compound I-2]" reported_metric=half-life result_number=3.04
